The reported numbers originate from patent US20200024330A1.

Recorded measurements of Fold IC50 increase relative to wild-type, one per entry
# assayed-system: HIV-1 JR-CSF Env P313A (HIV-1 JR-CSF) (UniProt P20871)
# assay-summary: cell-based or functional assay
Give the value in fold but do not write fold after it.

1. PGT-131 (antibody, V domains shown) VH: QVQLQESGPGLVKPSETLSLTCTVSGDSINTGHHYWGWVRQVPGKGPEWIAHIHYNTAVLHNPALKSRVTISIFTLKNLITLSLSNVTAADTAVYFCVRSGGDILYYIEWQKPHWFYPWGPGILVTVSS VL: QSALTQPPSASGSLGQSLTISCSGTGSDIGSWNFVSWYQQFPGRAPNLIIFEVNRRRSGVPDRFSGSKSGNTASLTVSGLRSEDEAEYFCSSLSGRWDIVFGGGTKVTVL :: 0.52

Note down Fold IC50 increase relative to wild-type recorded for PGT-128 (antibody, V domains shown) VH: QPQLQESGPTLVEASETLSLTCAVSGDSTAACNSFWGWVRQPPGKGLEWVGSLSHCASYWNRGWTYHNPSLKSRLTLALDTPKNLVFLKLNSVTAADTATYYCARFGGEVLRYTDWPKPAWVDLWGRGTLVTVSS VL: QSALTQPPSASGSPGQSITISCTGTSNNFVSWYQQHAGKAPKLVIYDVNKRPSGVPDRFSGSKSGNTASLTVSGLQTDDEAVYYCGSLVGNWDVIFGGGTKLTVL
1

Note down Fold IC50 increase relative to wild-type recorded for PGT-127 (antibody, V domains shown) VH: QPQLQESGPGLVEASETLSLTCTVSGDSTGRCNYFWGWVRQPPGKGLEWIGSLSHCRSYYNTDWTYHNPSLKSRLTISLDTPKNQVFLRLTSVTAADTATYYCARFGGEVLVYRDWPKPAWVDLWGRGTLVVTVS VL: QSALTQPPSASGSPGQSITISCTGTSNNFVSWYQQYPGKAPKLVIYEVNKRPSGVPDRFSGSKSGSTASLTVSGLQADDEGVYYCSSLVGNWDVIFGGGTKLTVL
1.3

Note down Fold IC50 increase relative to wild-type recorded for PGT-126 (antibody, V domains shown) VH: QPQLQESGPGLVEASETLSLTCTVSGDSTAACDYFWGWVRQPPGKGLEWIGGLSHCAGYYNTGWTYHNPSLKSRLTISLDTPKNQVFLKLNSVTAADTAIYYCARFDGEVLVYHDWPKPAWVDLWGRGTLVTVSS VL: QSALTQPPSASGSPGQSISISCTGTSNRFVSWYQQHPGKAPKLVIYGVNKRPSGVPDRFSGSKSGNTASLTVSGLQTDDEAVYYCSSLVGNWDVIFGGGTKLTVL
0.4

Note down Fold IC50 increase relative to wild-type recorded for PGT-130 (antibody, V domains shown) VH: QVQLQESGPGLVKPAETLSLTCSVSGESINTGHYYWGWVRQVPGKGLEWIGHIHYTTAVLHNPSLKSRLTIKIYTLRNQITLRLSNVTAADTAVYHCVRSGGDILYYYEWQKPHWFSPWGPGIHVTVSS VL: QSALTQPPSASGSLGQSVTISCNGTSSDIGGWNFVSWYQQFPGRAPRLIIFEVNKRPSGVPGRFSGSKSGNSASLTVSGLQSDDEGQYFCSSLFGRWDVVFGGGTKLTVL
0.3
